System: Enterobacter cloacae
Assay: In vitro inhibitory activity against Enterobacter cloacae EB5
Format: functional
Readout label: MIC (µg/mL)

Before answering, review these 6 worked examples.
{"columns": ["Input smiles", "Readout label", "Readout units", "Observed measurement"],
 "data": [
  ["COC(=O)C1=C(C(=O)O)N2C(=O)[C@@H](NC(=O)Cc3cccs3)[C@H]2CC1", "MIC", "µg/mL", 128],
  ["CO/N=C(\\C(=O)N[C@@H]1C(=O)N2C(C(=O)[O-])=C(C[n+]3ccccc3)CS[C@H]12)c1csc(N)n1", "MIC", "µg/mL", 0.06],
  ["O=C(COc1ccccc1)N[C@@H]1C(=O)N2C(C(=O)O)=C(Cl)CC[C@H]12", "MIC", "µg/mL", 128],
  ["COC(=O)C1=C(C(=O)O)N2C(=O)[C@@H](NC(=O)Cc3cccs3)[C@H]2SC1", "MIC", "µg/mL", 128],
  ["CC1=C(C(=O)O)N2C(=O)[C@@H](NC(=O)COc3ccccc3)[C@H]2SC1", "MIC", "µg/mL", 128],
  ["COCC1=C(C(=O)O)N2C(=O)[C@@H](NC(=O)COc3ccccc3)[C@H]2SC1", "MIC", "µg/mL", 128]
]}

P = O=C(COc1ccccc1)N[C@@H]1C(=O)N2C(C(=O)O)=C(Cl)CS[C@H]12
Q = CO/N=C(\C(=O)N[C@@H]1C(=O)N2C(C(=O)O)=CCC[C@H]12)c1csc(N)n1
API: POST /compare with P and Q ; response names the item with higher MIC. Pick one and reply with its label.
P
(P: 128 µg/mL, Q: 0.06 µg/mL)

----------
Experiment: Pseudo-first-order rate constant at pH 10 and 35 degrees Centigrade
Assay type: ADME
Readout label: K (h⁻¹)

# annotated cases, reported K shown
{"columns": ["Compound", "K, h⁻¹"],
 "data": [
  ["O=C(Cc1cccs1)N[C@@H]1C(=O)N2C(C(=O)O)=C(C(=O)O)CS[C@H]12", 0.34],
  ["COC(=O)C1=C(C(=O)O)N2C(=O)[C@@H](NC(=O)Cc3cccs3)[C@H]2SC1", 6.27],
  ["CS(=O)(=O)OC1=C(C(=O)O)N2C(=O)[C@@H](NC(=O)COc3ccccc3)[C@H]2CC1", 0.089],
  ["CO/N=C(\\C(=O)N[C@@H]1C(=O)N2C(C(=O)[O-])=C(C[n+]3ccccc3)CC[C@H]12)c1csc(N)n1", 0.0628],
  ["CO/N=C(\\C(=O)N[C@@H]1C(=O)N2C(C(=O)O)=CCS[C@H]12)c1csc(N)n1 [CEFTIZOXIME]", 0.114],
  ["CC1=C(C(=O)O)N2C(=O)[C@@H](NC(=O)COc3ccccc3)[C@H]2SC1", 0.0793],
  ["O=C(Cc1cccs1)N[C@@H]1C(=O)N2C(C(=O)O)=C(C(=O)O)CC[C@H]12", 0.0105],
  ["O=C(COc1ccccc1)N[C@@H]1C(=O)N2C(C(=O)O)=C(Cl)CS[C@H]12", 0.895]
]}

1 = CS(=O)(=O)OC1=C(C(=O)O)N2C(=O)[C@@H](NC(=O)COc3ccccc3)[C@H]2SC1
2 = CO/N=C(\C(=O)N[C@@H]1C(=O)N2C(C(=O)O)=CCC[C@H]12)c1csc(N)n1
# argmax over K for candidates 1 and 2 Lab log: write the label of the selected item as the result.
1
(1: 1.91 h⁻¹, 2: 0.00565 h⁻¹)

P = CO/N=C(\C(=O)N[C@@H]1C(=O)N2C(C(=O)[O-])=C(C[n+]3ccccc3)CS[C@H]12)c1csc(N)n1
Q = N[C@@H](C(=O)N[C@@H]1C(=O)N2C(C(=O)O)=C(Cl)CC[C@H]12)c1ccccc1 [LORACARBEF ANHYDROUS]
Given P and given Q , which shows the smaller recorded K? Answer by stating the label of the chosen item.
Q
(Q: 0.0324 h⁻¹, P: 1.85 h⁻¹)

----------
Assay: Pseudo-first-order rate constant at pH 10, micro=0.5, 35 degrees Centigrade
Type: ADME
Readout label: K (h⁻¹)

Some solved entries appear below for comparison.
{"columns": ["Input smiles", "K [h⁻¹]"],
 "data": [
  ["COC(=O)C1=C(C(=O)O)N2C(=O)[C@@H](NC(=O)Cc3cccs3)[C@H]2CC1", 0.799],
  ["COCC1=C(C(=O)O)N2C(=O)[C@@H](NC(=O)COc3ccccc3)[C@H]2CC1", 0.0149]
]}

a = O=C(COc1ccccc1)N[C@@H]1C(=O)N2C(C(=O)O)=C(Cl)CC[C@H]12
b = CC1=C(C(=O)O)N2C(=O)[C@@H](NC(=O)COc3ccccc3)[C@H]2CC1
Param pair: a , b . Output: the one whose K is numerically greater. Answer by quoting the chosen item's label.
a

----------
Assay: Half-life is evaluated
Format: ADME
Readout label: half-life (min)

P = O=C(Cc1cccs1)N[C@@H]1C(=O)N2C(C(=O)O)=C(C(=O)O)CS[C@H]12
Q = CO/N=C(\C(=O)N[C@@H]1C(=O)N2C(C(=O)O)=CCS[C@H]12)c1csc(N)n1
Which value of half-life is smaller, the one for P or the one for Q ? Indicate your choice by writing its label.
P

A = CO/N=C(\C(=O)N[C@@H]1C(=O)N2C(C(=O)[O-])=C(C[n+]3ccccc3)CC[C@H]12)c1csc(N)n1
B = COCC1=C(C(=O)O)N2C(=O)[C@@H](NC(=O)COc3ccccc3)[C@H]2SC1
C = O=C(COc1ccccc1)N[C@@H]1C(=O)N2C(C(=O)O)=C(Cl)CC[C@H]12
D = O=C(Cc1cccs1)N[C@@H]1C(=O)N2C(C(=O)O)=C(C(=O)O)CC[C@H]12
E = CO/N=C(\C(=O)N[C@@H]1C(=O)N2C(C(=O)[O-])=C(C[n+]3ccccc3)CS[C@H]12)c1csc(N)n1
Rank the items in ascending order with respect to half-life. State the ranking by listing the labels in the requested order.
E, B, A, C, D
(E: 22.5 min, B: 113 min, A: 660 min, C: 948 min, D: 3960 min)

a = CC1=C(C(=O)O)N2C(=O)[C@@H](NC(=O)COc3ccccc3)[C@H]2SC1
b = CS(=O)(=O)OC1=C(C(=O)O)N2C(=O)[C@@H](NC(=O)COc3ccccc3)[C@H]2SC1
c = COC(=O)C1=C(C(=O)O)N2C(=O)[C@@H](NC(=O)Cc3cccs3)[C@H]2SC1
d = COC(=O)C1=C(C(=O)O)N2C(=O)[C@@H](NC(=O)Cc3cccs3)[C@H]2CC1
Hey, can you sort those molecules up there by half-life, smallest first? Could you list the labels in the order requested?
c, b, d, a
(c: 6.66 min, b: 21.8 min, d: 52 min, a: 524 min)

1 = CS(=O)(=O)OC1=C(C(=O)O)N2C(=O)[C@@H](NC(=O)COc3ccccc3)[C@H]2CC1
2 = O=C(COc1ccccc1)N[C@@H]1C(=O)N2C(C(=O)O)=C(Cl)CS[C@H]12
3 = COCC1=C(C(=O)O)N2C(=O)[C@@H](NC(=O)COc3ccccc3)[C@H]2CC1
Please rank these molecules by half-life in descending order. In plain terms: list the labels in the order you were asked to.
3, 1, 2

P = CC1=C(C(=O)O)N2C(=O)[C@@H](NC(=O)COc3ccccc3)[C@H]2CC1
Q = CO/N=C(\C(=O)N[C@@H]1C(=O)N2C(C(=O)O)=CCC[C@H]12)c1csc(N)n1
R = N[C@@H](C(=O)N[C@@H]1C(=O)N2C(C(=O)O)=C(Cl)CC[C@H]12)c1ccccc1 [LORACARBEF ANHYDROUS]
rank_up(items): orders items by reported half-life in ascending numerical order. Dear reader, please state the labels in the requested order.
R, Q, P
(R: 1280 min, Q: 7380 min, P: 26000 min)

----------
Test system: Providencia rettgeri
Experiment: In vitro inhibitory activity against Proteus rettgeri C24
Format: functional
Readout label: MIC (µg/mL)

Here are 5 compounds together with their reported answers.
{"columns": ["Compound", "MIC [µg/mL]"],
 "data": [
  ["COCC1=C(C(=O)O)N2C(=O)[C@@H](NC(=O)COc3ccccc3)[C@H]2CC1", 128],
  ["COC(=O)C1=C(C(=O)O)N2C(=O)[C@@H](NC(=O)Cc3cccs3)[C@H]2SC1", 128],
  ["COC(=O)C1=C(C(=O)O)N2C(=O)[C@@H](NC(=O)Cc3cccs3)[C@H]2CC1", 8],
  ["COCC1=C(C(=O)O)N2C(=O)[C@@H](NC(=O)COc3ccccc3)[C@H]2SC1", 128],
  ["CS(=O)(=O)OC1=C(C(=O)O)N2C(=O)[C@@H](NC(=O)COc3ccccc3)[C@H]2CC1", 128]
]}

P = CO/N=C(\C(=O)N[C@@H]1C(=O)N2C(C(=O)[O-])=C(C[n+]3ccccc3)CC[C@H]12)c1csc(N)n1
Q = CC1=C(C(=O)O)N2C(=O)[C@@H](NC(=O)COc3ccccc3)[C@H]2CC1
R = CO/N=C(\C(=O)N[C@@H]1C(=O)N2C(C(=O)O)=CCC[C@H]12)c1csc(N)n1
S = CO/N=C(\C(=O)N[C@@H]1C(=O)N2C(C(=O)[O-])=C(C[n+]3ccccc3)CS[C@H]12)c1csc(N)n1
Hello, I need these entries ordered by MIC, highest reading first. Thanks! Give the labels in the order requested.
Q, P, S, R
(Q: 128 µg/mL, P: 0.06 µg/mL, S: 0.03 µg/mL, R: 0.008 µg/mL)

I = O=C(COc1ccccc1)N[C@@H]1C(=O)N2C(C(=O)O)=C(Cl)CC[C@H]12
II = CO/N=C(\C(=O)N[C@@H]1C(=O)N2C(C(=O)O)=CCS[C@H]12)c1csc(N)n1 [CEFTIZOXIME]
Response body: label of entry with the larger MIC; valid values I , II . Bench note: the answer is the label of the chosen record.
I
(I: 128 µg/mL, II: 0.008 µg/mL)
